Numbers sourced from patent US20050096347A1.

Target: β1-AR (Rattus norvegicus)
Sequence (P18090 whole entry): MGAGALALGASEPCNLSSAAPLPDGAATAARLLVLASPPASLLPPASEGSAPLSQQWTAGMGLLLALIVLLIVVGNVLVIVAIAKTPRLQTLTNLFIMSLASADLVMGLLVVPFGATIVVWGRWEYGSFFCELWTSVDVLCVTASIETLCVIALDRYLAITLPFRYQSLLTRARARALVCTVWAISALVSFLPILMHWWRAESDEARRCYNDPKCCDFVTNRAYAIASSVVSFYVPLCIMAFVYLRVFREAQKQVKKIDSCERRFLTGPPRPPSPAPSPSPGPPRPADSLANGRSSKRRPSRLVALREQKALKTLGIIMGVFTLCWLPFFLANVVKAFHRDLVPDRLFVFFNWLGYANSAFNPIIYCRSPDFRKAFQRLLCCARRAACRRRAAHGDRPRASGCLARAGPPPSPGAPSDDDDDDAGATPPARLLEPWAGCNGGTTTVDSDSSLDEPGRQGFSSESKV
Experiment: Chronotropic responses of spontaneously beating isolated rat right atria
Measured attribute: EC50
Give me the value, and tack the unit on after it.

Task: Return reported EC50; argument: Br.CC(=O)Nc1c(I)cc(CC2NCCc3cc(O)c(O)cc32)cc1I (stereo not shown) [Compound 15, Hydrobromide]
Result: 1.1 nM

* * *

Target: human β2 Adrenoreceptor (Homo sapiens, UniProt P07550)
Construct: expressed in transfected cells
Sequence (P07550 whole entry): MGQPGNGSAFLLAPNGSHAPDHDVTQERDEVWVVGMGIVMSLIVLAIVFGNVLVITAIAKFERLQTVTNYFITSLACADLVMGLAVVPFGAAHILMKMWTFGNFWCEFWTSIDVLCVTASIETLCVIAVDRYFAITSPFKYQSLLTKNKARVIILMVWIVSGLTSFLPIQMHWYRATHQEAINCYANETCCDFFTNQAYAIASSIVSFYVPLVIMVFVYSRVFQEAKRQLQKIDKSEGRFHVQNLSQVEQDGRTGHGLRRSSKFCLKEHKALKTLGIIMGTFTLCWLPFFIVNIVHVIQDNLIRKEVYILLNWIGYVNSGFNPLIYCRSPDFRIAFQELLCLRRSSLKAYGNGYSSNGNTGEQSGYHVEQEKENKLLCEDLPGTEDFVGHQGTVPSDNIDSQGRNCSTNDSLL
Test: Radioligand competition binding, human β2 adrenoreceptor expressed in CHO cells ([125I]ICYP)
Details: CHO cells (Table 8); read-out: hβ2 Binding ki
In this section we review reported pKi values for a set of molecules.
Field pKi (float): negative decimal logarithm of the concentration in molar.

- Molecule: "[N-]=[N+]=Nc1ccc(CC2NCCc3cc(O)c(O)cc32)cc1I (stereo not shown)"
  pKi: 7.62

Task: Which measured pKi belongs to COc1c(I)cc(CC2NCCc3cc(O)ccc32)cc1I (stereo not shown) [drawing 83] , tested on human β2 Adrenoreceptor (Homo sapiens, UniProt P07550)?
Result: 7.33

Task: Recall the recorded pKi for COc1c(I)cc(CC2NCCc3cc(O)c(O)cc32)cc1I (stereo not shown) [drawing 80] with human β2 Adrenoreceptor (Homo sapiens, UniProt P07550) and state it.
Result: 8.51

* * *

Target: Human β3 Adrenoreceptors (Homo sapiens)
Construct: expressed in transfected cells
Assay: hβ3 cAMP functional activity in CHO cells expressing human β3 adrenoreceptors (Table 8)
Type: cell-based
Details: read-out: hβ3 cAMP EC50(nM) +/−SEM
Measured attribute: EC50

Below, each entry is followed by its recorded EC50 result.
- Compound: "COc1c(I)cc(CC2NCCc3cc(O)ccc32)cc1I (stereo not shown) [drawing 83]"
  Val: "33.5 nM"
- Compound: "COc1cc(CC2NCCc3cc(O)c(O)cc32)cc(OC)c1OC (stereo not shown)"
  Val: "< 1 nM"
- Compound: "COc1c(I)cc(CC2NCCc3nc(N)sc32)cc1I (stereo not shown)"
  Val: "506 nM"
- Compound: "COc1c(I)cc(CC2NCCc3cc(O)c(O)cc32)cc1I (stereo not shown) [drawing 80]"
  Val: "< 4 nM"

Task: What value of measured EC50 is listed for COc1cc(CC2NCCc3nc(N)sc32)cc(OC)c1OC (stereo not shown) ?
Result: > 3160 nM

Task: Give its EC50 value. Item: Nc1c(I)cc(CC2NCCc3cc(O)c(O)cc32)cc1I (stereo not shown)
Result: < 4 nM

Task: Suppose we examine the compound [N-]=[N+]=Nc1ccc(CC2NCCc3cc(O)c(O)cc32)cc1I (stereo not shown) ; what EC50 value has been reported?
Result: 46 nM

* * *

Molecular target: rat-β3-AR (Rattus norvegicus, UniProt P26255)
Construct: expressed in transfected cells; host or cells: CHO cells
Sequence (P26255 whole entry): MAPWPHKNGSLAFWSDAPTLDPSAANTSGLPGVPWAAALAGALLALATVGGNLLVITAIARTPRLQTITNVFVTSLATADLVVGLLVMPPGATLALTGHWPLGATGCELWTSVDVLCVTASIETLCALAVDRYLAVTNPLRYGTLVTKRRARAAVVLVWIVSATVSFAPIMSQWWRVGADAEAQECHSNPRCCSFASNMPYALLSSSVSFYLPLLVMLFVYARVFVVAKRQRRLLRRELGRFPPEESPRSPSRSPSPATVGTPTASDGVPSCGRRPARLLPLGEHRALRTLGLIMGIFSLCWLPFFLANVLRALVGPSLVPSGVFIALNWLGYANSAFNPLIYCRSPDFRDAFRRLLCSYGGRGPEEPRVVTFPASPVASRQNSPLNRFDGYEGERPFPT
Experiment: cAMP accumulation in CHO cells expressing rat β3-AR
Type: cell-based
Conditions: relative to that of (−)-isoproterenol; CHO cells expressing rat-β3-AR; read-out: Emax, maximal cAMP accumulation
Measured attribute: Emax (%)
Numbers only; they are read as %.

Examples with their reported Emax follow.
- Compound: "COc1c(I)cc(CC2NCCc3cc(O)c(O)cc32)cc1I (stereo not shown) [Compound 2, reference compound]"
  Val: 96.9
- Compound: "Oc1cc2c(cc1O)C(Cc1cc(I)cc(I)c1)NCC2 (stereo not shown)"
  Val: 97.7
- Compound: "Br.CC(=O)Nc1c(I)cc(CC2NCCc3cc(O)c(O)cc32)cc1I (stereo not shown) [Compound 15, Hydrobromide]"
  Val: 89.6

Please find the next compound below.
Task: For the compound COc1cc(CC2NCCc3cc4c(cc32)OCO4)cc(OC)c1OC (stereo not shown) , what Emax is on record?
Result: 70.9

* * *

The following molecules are shown together with reported log10 of Ki values.
Target: rat-β3-AR (Rattus norvegicus, UniProt P26255)
Construct: expressed in transfected cells; host or cells: CHO cells
Experiment: Binding in CHO cells expressing rat β3-AR
Settings: mean ± SEM (n in parentheses), read-out: pKi (−log Ki) for binding, rat-β3-AR (converted)
Counter-ions that a name gives are not always drawn.
A difference of one corresponds to tenfold Ki; all values are log10 with Ki in nM.

Reference set, count: 6
- Molecule: "Oc1cc2c(cc1O)C(Cc1cc(I)cc(I)c1)NCC2 (stereo not shown)"
  log10 of Ki: 3.20
- Molecule: "Br.CC(=O)Nc1c(I)cc(CC2NCCc3cc(O)c(O)cc32)cc1I (stereo not shown) [Compound 15, Hydrobromide]"
  log10 of Ki: 1.72
- Molecule: "Cl.Cl.Nc1c(I)cc(CC2NCCc3cc(O)c(O)cc32)cc1I (stereo not shown) [Compound 21c, Dihydrochloride]"
  log10 of Ki: 2.86
- Molecule: "COc1c(I)cc(CC2NCCc3cc(O)c(O)cc32)cc1I (stereo not shown) [Compound 2, reference compound]"
  log10 of Ki: 2.66
- Molecule: "COc1cc(CC2NCCc3cc4c(cc32)OCO4)cc(OC)c1OC (stereo not shown)"
  log10 of Ki: 4.71
- Molecule: "COc1cc2c(cc1OC)C(Cc1cc(I)c(NC(C)=O)c(I)c1)NCC2 (stereo not shown) [6,7-Dimethoxy-acetamidoDITMQ, Hydrochloride]"
  log10 of Ki: 4.16

Next:
Task: Entry COc1cc2c(cc1OC)C(Cc1cc(OC)c(OC)c(OC)c1)NCC2 (stereo not shown) [6,7-Dimethoxy TMQ, reference compound] has what log10 of Ki?
Result: 5.12

* * *

Biological target: Human β3-AR (Homo sapiens)
Experiment: cAMP radioimmunoassay (cAMP-RIA), CHO cells expressing human β3-AR
Format: cell-based
Parameters: expressed in transfected cells
Measured attribute: EC50 (nM)
Field format: number, assumed nM, no unit text.

Task: # input compound: COc1cc(CC2NCCc3cc(O)c(O)cc32)cc(OC)c1OC (racemic) [Compound 1, trimetoquinol, reference compound] ; wanted: its EC50
Result: 2.51

* * *

The following compounds are listed with their measured pKi ± SEM, Human TP receptors values.
Molecular target: Thromboxane A2/Prostaglandin H2 (TP) receptor (Homo sapiens, UniProt P21731)
Construct: endogenous in cells; host or cells: human platelets (from platelet rich plasma)
Sequence (P21731 whole entry): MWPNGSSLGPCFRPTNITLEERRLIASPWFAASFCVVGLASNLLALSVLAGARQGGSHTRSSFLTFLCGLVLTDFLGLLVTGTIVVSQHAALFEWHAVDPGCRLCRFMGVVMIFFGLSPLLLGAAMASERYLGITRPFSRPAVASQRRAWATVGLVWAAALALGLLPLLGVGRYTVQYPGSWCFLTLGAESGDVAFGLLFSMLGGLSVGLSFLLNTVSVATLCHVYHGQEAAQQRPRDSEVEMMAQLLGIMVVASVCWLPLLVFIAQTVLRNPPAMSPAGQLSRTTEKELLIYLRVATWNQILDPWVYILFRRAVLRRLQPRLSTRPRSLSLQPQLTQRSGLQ
Assay: Radioligand competition binding, TP receptor sites in human platelets ([3H]SQ 29,548)
Conditions: [3H]SQ 29,548 as radioligand; platelets; N = 4-9
Respond using a number only.

- Compound: "COc1c(I)cc(CC2NCCc3cc(O)c(O)cc32)cc1I (centres unmarked) [Compound 2, reference compound]"
  System under test: "Thromboxane A2/Prostaglandin H2 (TP) receptor (Homo sapiens, UniProt P21731)"
  Val: 7.33
- Compound: "CC(=O)Nc1ccc(CC2NCCc3cc(O)c(O)cc32)cc1I.I (centres unmarked) [Compound 26a]"
  System under test: "Thromboxane A2/Prostaglandin H2 (TP) receptor (Homo sapiens, UniProt P21731)"
  Val: 5.83
- Compound: "Cl.Oc1cc2c(cc1O)C(Cc1cc(C(F)(F)F)cc(C(F)(F)F)c1)NCC2 (centres unmarked) [Compound 27]"
  System under test: "Thromboxane A2/Prostaglandin H2 (TP) receptor (Homo sapiens, UniProt P21731)"
  Val: 4.08
- Compound: "Cl.Cl.Nc1c(I)cc(CC2NCCc3cc(O)c(O)cc32)cc1I (centres unmarked) [Compound 21c]"
  System under test: "Thromboxane A2/Prostaglandin H2 (TP) receptor (Homo sapiens, UniProt P21731)"
  Val: 6.73
- Compound: "I.O=C(Nc1ccc(CC2NCCc3cc(O)c(O)cc32)cc1I)c1ccccc1 (centres unmarked) [Compound 26b]"
  System under test: "Thromboxane A2/Prostaglandin H2 (TP) receptor (Homo sapiens, UniProt P21731)"
  Val: 5.27
- Compound: "Br.Oc1cc2c(cc1O)C(Cc1cc(I)c(I)c(I)c1)NCC2 (centres unmarked) [Compound 21b]"
  System under test: "Thromboxane A2/Prostaglandin H2 (TP) receptor (Homo sapiens, UniProt P21731)"
  Val: 4.22
- Compound: "Br.CC(=O)Nc1c(I)cc(CC2NCCc3cc(O)c(O)cc32)cc1I (centres unmarked) [Compound 15]"
  System under test: "Thromboxane A2/Prostaglandin H2 (TP) receptor (Homo sapiens, UniProt P21731)"
  Val: 6.45

Next up:
Task: Please provide the recorded pKi ± SEM, Human TP receptors for Br.Oc1cc2c(cc1O)C(Cc1cc(I)c(O)c(I)c1)NCC2 (centres unmarked) [Compound 18] , tested on Thromboxane A2/Prostaglandin H2 (TP) receptor (Homo sapiens, UniProt P21731).
Result: 4.72

* * *

Target: Human β3-AR (Homo sapiens, UniProt P13945)
Sequence (P13945 whole entry): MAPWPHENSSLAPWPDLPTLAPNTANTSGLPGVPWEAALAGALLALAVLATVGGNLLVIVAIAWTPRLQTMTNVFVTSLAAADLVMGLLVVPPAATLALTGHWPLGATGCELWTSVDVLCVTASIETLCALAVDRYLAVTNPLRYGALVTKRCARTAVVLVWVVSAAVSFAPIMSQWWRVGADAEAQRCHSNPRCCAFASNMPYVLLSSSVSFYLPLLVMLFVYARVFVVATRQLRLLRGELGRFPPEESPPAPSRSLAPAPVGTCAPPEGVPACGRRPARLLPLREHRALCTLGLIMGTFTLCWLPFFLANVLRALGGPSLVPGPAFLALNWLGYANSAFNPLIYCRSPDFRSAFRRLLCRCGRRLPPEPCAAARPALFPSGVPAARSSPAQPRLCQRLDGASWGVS
Test: cAMP radioimmunoassay (cAMP-RIA), CHO cells expressing human β3-AR
Type: cell-based
Parameters: expressed in transfected cells
Conditions: percentage of maximal response of R-(−)-isoproterenol (100%)
Measured attribute: I.A., Human β3-AR, cAMP-RIA assay (%)
Please state the figure in %; there is no need to write the unit.

The examples below pair each entry with its known result.
- Compound: "CC(C)NC[C@H](O)c1ccc(O)c(O)c1 (single isomer, unassigned) [(−)Isoproterenol, isoproterenol, reference compound]"
  Measured attribute: "I.A., Human β3-AR, cAMP-RIA assay"
  Val: 100
- Compound: "COc1cc(CC2NCCc3nc(N)sc32)cc(OC)c1OC.Cl.Cl (stereo not shown) [7 (B-29)]"
  Measured attribute: "I.A., Human β3-AR, cAMP-RIA assay"
  Val: 54

Task: Recorded I.A., Human β3-AR, cAMP-RIA assay of COc1c(I)cc(CC2NCCc3nc(N)sc32)cc1I.Cl.Cl (stereo not shown) [9 (B-28)] , please.
Result: 67
